- Tested on: VchCAST RNA-guided transposition machinery (E. coli BL21(DE3) host, lacZ target)
- Test summary: relative integration efficiency (T-RL orientation) vs wild-type transposon end (log2 (normalized fold change)); transposon end mutated: left end; higher = more efficient transposition
Measurement kind: relative integration efficiency (log2)
Give bare numbers.

Take a look at these entries with their results.
{"Entry sequence": "AATGTTGTTGATGCAACCATAAAGTGATATTTACAACCATATATTGATATCTCATAATTATTTATAATCAGCAACTTAACCACAAAAACAAAACAACCATAAGTTGATATTTTTGTGAATCGAGTATTTCAGCAAAACTACTGCAGTAAGAA", "Target under test": "VchCAST RNA-guided transposition machinery (E. coli BL21(DE3) host, lacZ target)", "Measurement kind": "relative integration efficiency (log2)", "Value measured": -1.85}
{"Entry sequence": "AATGTTGTTGATGCAACCATAAAGTGATATTTAATAACAACCATATATTGATATCTCTTATTTATAATCAGCAACTTAACCACAAAAACAAAACAACCATAAGTTGATATTTTTGTGAATCGAGTATTTCAGCAAAACTACTGCAGTAAGAA", "Target under test": "VchCAST RNA-guided transposition machinery (E. coli BL21(DE3) host, lacZ target)", "Measurement kind": "relative integration efficiency (log2)", "Value measured": -3.58}
{"Entry sequence": "AATGTTGTTGATGCAACCATAAAGTGATATTTAATAATTATTTATAATCAGCCAACCATATATTGATATCTCAACTTAACCACAAAAACAAAACAACCATAAGTTGATATTTTTGTGAATCGAGTATTTCAGCAAAACTACTGCAGTAAGAA", "Target under test": "VchCAST RNA-guided transposition machinery (E. coli BL21(DE3) host, lacZ target)", "Measurement kind": "relative integration efficiency (log2)", "Value measured": -7.27}

Please look at the following sequence next.
Item under review: `AATGTTGTTGATGCAACCATAAAGTGATATTTAACTCTCTTCTTTAGCAGTCTAGTCTATTGAAACTCAACCATATATTGATATCTCACAAAACAACCATAAGTTGATATTTTTGTGAATCGAGTATTTCAGCAAAACTACTGCAGTAAGAA` . Reported relative integration efficiency (log2)?
-3.73

Source: the supplement of paper PMC10201428
